Protocol details: NCI Yeast Anticancer Drug Screen. Data for the rad14 strain (AID 159);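 further: 0% = growth of vehicle-treated control cultures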
Assay context: S. cerevisiae rad14 strain growth inhibition; at 1.2 µM; active compounds read high
The panel holds about 79,000 compounds, 15% with a hit somewhere; the sample as a whole holds those more often.
Metric: growth inhibition (%)
Respond numerically; units are % and should not be typed.

Measured growth inhibition of Cc1cc(O)c2c(c1O)C(=O)C13C(=C2O)C(=O)C2C(O)C1C1C(O)C3C(=O)C3=C(O)c4c(O)cc(C)c(O)c4C(=O)C321 (centres undefined) : -6

Measured growth inhibition of CN[C@@H]1C[C@H]2O[C@@](C)([C@@H]1OC)n1c3ccccc3c3c4c(c5c6ccccc6n2c5c31)C(=O)N[C@@H]4O : -31

Measured growth inhibition of CCOC(=O)C1=C(C)NC(C)=C(C(=O)OCC)C1c1ccc(C)cc1 : 17
